FYI, the data here is from PubChem BioAssay.

Assayed system: Torsin-1A-interacting protein 1 (Homo sapiens)
Assay protocol: LAP1 binders from COS7 cell lysate, primary screen, small-molecule microarray, 635/667 nm fluorescence (AID 1116)
Protocol conditions: COS7-hLAP1 lysate binding, 635 nm fluorescence, higher = more signal
Grouping key: composite z-score. Bins: c1: < 0.06; c2: ≥ 0.06 and < 0.4; c3: ≥ 0.4

Task item: Band assignment needed for C[C@@H]1C=CCC(=O)OC[C@H]2O[C@@H](C=C[C@@H]2O)[C@H](C)C=CCC(=O)OC1 please.
Reply: c2

Task item: Band assignment needed for O=C1OCCC=C1C(O)CCc1ccccc1 (stereo not given) please.
Reply: c2

Task item: Band assignment needed for COC(=O)CC=C[C@@H](C)[C@@H](C=NO[C@@H](C)c1cc(-c2c(C)cc(C)cc2C)no1)NS(=O)(=O)c1ccc(C)cc1 please.
Reply: c1

Task item: Band assignment needed for CO[C@H]1COC(=O)[C@@H]2CCCN2C(=O)CC=C[C@@H](C)[C@H](OC)COC(=O)[C@@H](OCc2ccccc2)C=C[C@@H]1C please.
Reply: c2

Task item: Band assignment needed for CO[C@H]1COC(=O)CCC[C@@H](C)[C@H](OC)COC(=O)[C@@H](C)NC(=O)CC=C[C@@H]1C please.
Reply: c3

Task item: Band assignment needed for COC(=O)CC=C[C@@H](C)[C@@H](C=NO[C@@H](C)c1cn([C@H](CO)Cc2ccccc2)nn1)OC please.
Reply: c1

Task item: Band assignment needed for Cc1cc2c(nc1C)CCCCN2CC(C)ON=C1[C@H]2CCn3c(=O)n(-c4ccccc4)c(=O)n3[C@H]2[C@H](O)[C@@H]2O[C@H]12 (stereo not given in full) please.
Reply: c2

Task item: Band assignment needed for CCOC(=O)[C@H](CC(C)C)NC(=O)CCC1CC(OC(=O)NCc2cccc3ccccc23)CC2(CCCC(COC(=O)NCCCN3CCCC3=O)O2)O1 (stereo not given in full) please.
Reply: c2

Task item: Band assignment needed for CO[C@H]1COC(=O)CC=C[C@@H](C)[C@H](OC)COC(=O)[C@@H]2CCCN2C(=O)CC=C[C@@H]1C please.
Reply: c2

Task item: Band assignment needed for CC(=O)OC[C@H]1O[C@@H](ON=C(C)CCN2CCCc3nc(C)c(C)cc32)[C@H](OC(C)=O)[C@@H](OC(C)=O)[C@@H]1OC(C)=O please.
Reply: c3

Task item: Band assignment needed for COC(=O)CC=C[C@@H](C)[C@@H]1C=C[C@H](O)[C@@H](CO)O1 please.
Reply: c2

Task item: Band assignment needed for CC(CCN1CCCc2nc(C)c(C)cc21)=NO[C@@H](C)c1cc(-c2c(C)cc(C)cc2C)no1 please.
Reply: c3

Task item: Band assignment needed for CCOC(=O)[C@H](Cc1ccccc1)NC(=O)CCC1CC(OC(=O)NCc2cccc3ccccc23)CC2(CCCC(COC(=O)NCCC(C)C)O2)O1 (stereo not given in full) please.
Reply: c1

Task item: Band assignment needed for CCN1C(=O)[C@H]2[C@H]3[C@H](O)[C@H](O)CC(=NOC[C@H]4O[C@H](c5ccccc5)C=C[C@@H]4Oc4ccc(OC)cc4)[C@@H]3CC[C@H]2C1=O please.
Reply: c3

Task item: Band assignment needed for CCN1C(=O)[C@H]2[C@H]3[C@H](O)[C@H](O)CC(=NO[C@@H](C)c4cn([C@H](CO)Cc5ccccc5)nn4)[C@@H]3CC[C@H]2C1=O please.
Reply: c1
